Entries annotated with measured IC50
Biological target: T1, TrkA protein on HEK-293T-TrkA cells or NIH-3T3-TrkA cells (human, UniProt P04629 33-796)
T1 construct: whole, on cells; Printed only as TrkA for these cells; also called TrkA protein on the membrane of NIH-3T3-TrkA cells
T1 sequence (P04629 33-796): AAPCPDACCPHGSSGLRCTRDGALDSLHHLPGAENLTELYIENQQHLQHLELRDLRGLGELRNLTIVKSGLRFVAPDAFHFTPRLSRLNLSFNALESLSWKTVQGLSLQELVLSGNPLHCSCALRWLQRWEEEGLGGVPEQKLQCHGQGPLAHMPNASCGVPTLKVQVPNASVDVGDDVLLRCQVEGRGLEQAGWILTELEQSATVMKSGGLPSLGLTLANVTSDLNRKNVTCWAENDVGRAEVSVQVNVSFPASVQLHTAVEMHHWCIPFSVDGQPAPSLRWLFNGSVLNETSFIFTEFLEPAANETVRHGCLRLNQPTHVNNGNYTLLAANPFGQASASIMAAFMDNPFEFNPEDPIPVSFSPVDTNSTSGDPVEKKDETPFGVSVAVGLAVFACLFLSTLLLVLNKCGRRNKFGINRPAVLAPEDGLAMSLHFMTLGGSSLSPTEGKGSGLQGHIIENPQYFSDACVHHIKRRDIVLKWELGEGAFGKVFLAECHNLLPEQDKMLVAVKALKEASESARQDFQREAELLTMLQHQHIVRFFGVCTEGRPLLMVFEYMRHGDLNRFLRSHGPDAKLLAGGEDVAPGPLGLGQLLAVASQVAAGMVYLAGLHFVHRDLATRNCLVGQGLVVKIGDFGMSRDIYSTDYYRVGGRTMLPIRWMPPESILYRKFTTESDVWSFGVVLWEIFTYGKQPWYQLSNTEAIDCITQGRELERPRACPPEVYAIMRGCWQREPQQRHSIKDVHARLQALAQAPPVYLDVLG
Assay: flow cytometry competition: antibody titrated against biotinylated NGF binding to HEK-293T-TrkA cells, % parent
Field format: number, assumed mg/L, no unit text.

>  <binder>
4H4 chimeric antibody (antibody, human IgG4 S228P, kappa, F234A L235A, V domains shown, expressed in CHO cells) VH: EVQLQQSGPELVKPGASMKISCKASGYSFTGYTMNWVKQSHGKNLEWIGLINPYNGGTRYNQKFKGKATLTVDKSSSTAYMELLSLTSEDSAVYYCASSSYRNDGNWYFDVWGAGTTVTVSS VL: DIVMTQSPAIMSASPGEKVTMTCSASSSVSYMHWYQQKSGTSPKRWIYDTSKLASGVPARFSGSGSGTSYSLTISSMETEDAATYYCQQWSSNPPTFGGGTKLELKR

>  <IC50 / mg/L>
2.04

$$$$
>  <binder>
2A5 chimeric antibody (antibody, human IgG4 S228P, kappa, F234A L235A, V domains shown, expressed in CHO cells) VH: EVQLQQSGPELVKPGASMKISCKASGYSFTGYTMNWVKQSHGKNLEWIGLINPYNGGTNYNQKFKGKATLTVDKSSSTAYMELLSLTSEDSAVYYCAFSYYGSRGFYFDYWGQGTTLTVSS VL: QIVLTQSPALMSASPGEKVTMTCSATSSVSYIYWYQQKPRSSPKPWIYLTSNLASGVPARFSGSGSGTSYSLTISSMEAEDAATYYCQQWSSNPPTFGGGTKLEIKR

>  <IC50 / mg/L>
4.8

$$$$
>  <binder>
1B9 chimeric antibody (antibody, human IgG4 S228P, kappa, F234A L235A, V domains shown, expressed in CHO cells) VH: QVHLQQSGAELMKPGASVKISCKATGYTFNIYWIDWVKQRPGHGLEWIGEILPGSGNTHYNENFKGKATMTADTSSNTAYMQLTSLTSEDSAVYYCARTDGRGYFDYWGQGTTLTVSS VL: DIVLTQSPASLVVSLGQRATISCRTSKSVSSSAYSYMHWYQQKPGQPPKVLIYLASNLESGVPARFSGSGSGTDFTLNIHPVEEEDAATYYCQHSRELPFTFGSGTKLEIKR

>  <IC50 / mg/L>
0.334

$$$$
>  <binder>
23E12 chimeric antibody (antibody, human IgG4 S228P, kappa, F234A L235A, V domains shown, expressed in CHO cells) VH: QVQLQQSGAELVRPGTSVKISCKASGYAFTNYWLGWMKQRPGHGLEWIGDFYPRTGNTFYNENFKGKVTLTADKSSNTAYMQLSSLTSEDSAVYLCARAGTGFDYWGQGTTLTVSS VL: SIVMTQSPKSMSMSVGERVTLSCKASENVGGYVSWYQQKPDQSPKLLIYGASSRHTGVPDRFTGSGSETDFTLTISSVQAEDLAAYHCGQNYIYPFTFGGGTKLEIKR

>  <IC50 / mg/L>
0.426

$$$$
>  <binder>
27H3 chimeric antibody (antibody, human IgG4 S228P, kappa, F234A L235A, V domains shown, expressed in CHO cells) VH: QVQLQQSGAELMKPGASVKISCKTTGYRFSSYWIEWVKQRPGHGLEWLGEILPGRGIINYNENFRGKATFTADTSSNTAYVQLSSLTSEDSAVYFCARTDPPYFGVWGAGTTVTVSS VL: QAVVTQESALTTSPGETVTLTCRSSTGAVTISNYANWVQEKPDHLFTGLIGGTNNRPPGVPARFSGSLIGDKAALTITGAQTEDEAIYFCVLWYSNHWVFGGGTKLTVLR

>  <IC50 / mg/L>
0.369

$$$$
>  <binder>
21E5 chimeric antibody (antibody, human IgG4 S228P, kappa, F234A L235A, V domains shown, expressed in CHO cells) VH: QVQLQQSGAELMKPGASMKISCKATGYTFSTYWIEWVKQRPGHGLEWIGENLPGRHITNYNEKFKGKATFTADTSSNTAYMQLSSLTSEDSAVYYCARGRGTYYFDYWGQGTPLTVSS VL: DIVMTQAAFSTPVTLGTSASISCRSSQSLLHSNGITYLYWYLQKPGQSPQLLIYQMSNLASGVPDRFSSSGSGTDFTLRISRVEAEDVGVYYCAQNLEFPFTFGSGTKLEIKR

>  <IC50 / mg/L>
0.547

$$$$

Now take the following binder into account.
Incoming: Annotate the binder 2008 chimeric antibody (antibody, human IgG4 S228P, kappa, F234A L235A, V domains shown, also called 20C8) VH: EVLLQQSGPELVKPGASMKISCKASVYSFTAYTMNWVKQSHGKNLEWIGLINPHNGGTRYNQKFKGKATLTLDKSSSTAYMDLLSLTSEDSAVYYCAISRYGSSSFYFDVWGAGTTVAVSS VL: QIVLSQSPAILSASPGEKVTMTCRASSSISYMHWYQQKPGSSPKPWISATSNLASGVPARFSGSGSGTSYSLTISGVEAEDAATYYCQQWSSNPPTFGGGTNLEIKR with its measured IC50.
Outgoing: 0.822
